These measurements were taken from patent US20230073274A1.

Target: human properdin (human, UniProt P27918 28-469)
Sequence (P27918 28-469 limits assumed): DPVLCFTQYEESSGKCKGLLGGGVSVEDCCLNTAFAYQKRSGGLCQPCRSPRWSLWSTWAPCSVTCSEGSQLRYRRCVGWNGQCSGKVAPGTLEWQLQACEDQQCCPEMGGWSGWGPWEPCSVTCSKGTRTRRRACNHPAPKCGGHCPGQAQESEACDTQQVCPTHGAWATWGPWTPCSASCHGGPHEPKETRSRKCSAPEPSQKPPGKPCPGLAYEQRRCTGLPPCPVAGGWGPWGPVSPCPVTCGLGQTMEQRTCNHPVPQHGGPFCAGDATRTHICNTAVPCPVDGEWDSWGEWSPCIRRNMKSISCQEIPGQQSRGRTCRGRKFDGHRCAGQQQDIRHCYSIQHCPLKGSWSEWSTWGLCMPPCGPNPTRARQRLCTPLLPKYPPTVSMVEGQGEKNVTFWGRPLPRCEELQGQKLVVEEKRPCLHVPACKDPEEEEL
Assay: cell-based or functional assay
Listed below: MAC (µg/mL); inhibition of MAC formation values for each entry.
quantity_kind: MAC (µg/mL); inhibition of MAC formation

- NMT28-100 (antibody, V domains shown) VH: EVQLVQSGAEVKKPGASVKVSCKASGYIFTNYPIHWVRQAPGQGLEWMGFIDPGGGYDEPDERFRDRVTMTADTSTSTAYMELSSLRSEDTAVYYCARRGGGYYLDYWGQGTLVTVSS VL: DIQMTQSPSSLSASVGDRVTITCRASQDISFFLNWYQQKPGKAPKLLIYYTSRYHSGVPSRFSGSGSGTDFTLTISSLQPEDFATYYCQHGQTLPWTFGQGTKVEIK: 3
- NMT17-101 (antibody, V domains shown) VH: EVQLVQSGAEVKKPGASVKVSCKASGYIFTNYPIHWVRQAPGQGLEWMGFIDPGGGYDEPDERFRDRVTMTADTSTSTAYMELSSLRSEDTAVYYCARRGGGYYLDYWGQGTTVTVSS VL: DIQMTQSPSSLSASVGDRVTITCRASQDISFFLNWYQQKPGKAPKLLIYYTSRYHSGVPSRFSGSGSGTDFTLTISSLQPEDFATYYCQHGSTLPWTFGQGTKLEIK: 1
